# Tested on: NCI-H322M lung
# procedure.summary: NCI-60 one-dose screen, 48 h
# test.settings: 10 µM unless noted
This is part of a sample that, as a whole, favours compounds with a hit. Of some 83,000 tested, about 20% had one in any assay. Calls of active or inactive are those of the source. Rule for the calls: active = growth percent below 10; inactive = the rest.
Thanks in advance; please answer with one of these: 1 (active), 0 (inactive)

{"test.smiles": "CN1CCN(Cc2ccc(NC(=O)c3cncc(C#Cc4cnc5ccc(OCC(F)F)nn45)c3)cc2C(F)(F)F)CC1", "class.assignment": 1}

Query :: Recorded call for `Cc1ccc(NC2=C(Cl)C(=O)c3nc(C)ccc3C2=O)c(C)c1` ?
Result :: 0

Query :: Try `C/C(=N\NC(N)=S)c1nnn(-c2ccc([N+](=O)[O-])cc2)c1C` next.
Result :: 0

Query :: Okay, and `COc1ccc([C@H]2C(=O)N(c3cc(OC)c(OC)c(OC)c3)[C@@H]2c2ccc(OC)c(O)c2)cc1` ?
Result :: 0

Query :: // query: `N#Cc1cccc(-c2cc(-c3ccc4c(c3)OCCO4)[nH]n2)c1`
Result :: 0

Query :: What do you have for `CC1=C(C)C(=O)C(Nc2ccc(C)cc2)=C(Br)C1=O` ?
Result :: 0

Query :: Quick one: `COC(=O)CNC(=O)c1cccc(-c2cc(=O)c3c(OC)c(OC)c(OC)cc3o2)c1`
Result :: 0

Query :: Also `C#C[C@]1(O)CC[C@H]2[C@@H]3CC=C4c5sc(N6CCN(C)CC6)nc5CC[C@]4(C)[C@H]3CC[C@@]21C` , if possible.
Result :: 0

Query :: Follow-up item: `COc1cc(C(=O)c2cc(C(C)=O)c3cccc(C)n23)cc(OC)c1OC`
Result :: 0

====

# System: MDA-MB-435 melanoma
# procedure.summary: NCI-60 one-dose screen, 48 h (100 = growth as untreated, 0 = no growth, -100 = all killed)
# test.settings: 10 µM unless noted
Compounds without any hit were thinned out: in the full panel of roughly 83,000, 20% have a hit.
Strictly below 30% in growth: 1.0. Otherwise: 0.0.

{"molecule": "CCN(CC)c1ccc(/C=N/NC(=O)c2ccc(NS(C)(=O)=O)cc2)cc1", "class.assignment": 0.0}
{"molecule": "O=C(CSc1nc2ccccc2c(=O)n1-c1ccc(Cl)c(Cl)c1)Nc1ccc(S(=O)(=O)Nc2ccc(Cl)nn2)cc1", "class.assignment": 0.0}
{"molecule": "Cc1csc(/N=C(N)/N=C(\\N)c2cccc(C#N)c2)n1", "class.assignment": 1.0}
{"molecule": "O=C(CCCCCCNC(=O)C(O)(O)C(F)(F)F)Nc1ncc(-c2ccc(Br)cc2)s1", "class.assignment": 1.0}
{"molecule": "Cc1ccc(NC(=O)Nc2nc3ccc([N+](=O)[O-])cc3s2)cc1", "class.assignment": 1.0}

Now look at this entry.
Query :: Say whether its growth is strictly beneath 30%. Entry: `COc1ccc(-c2nc(C#N)c(N3CCC(S(=O)(=O)N4CCOCC4)CC3)o2)cc1`
Result :: 0.0

====

# Test system: HOP-62 NSCLC
# procedure.summary: NCI-60 one-dose screen, 48 h (100 = growth as untreated, 0 = no growth, -100 = all killed)
# test.settings: 10 µM unless noted
Compounds without any hit were thinned out: in the full panel of roughly 83,000, 20% have a hit.
observation.type: growth (%)
Express it in %; write the number only.

Sample records with growth:
{"test.smiles": "CCOc1cccc(/C(N)=N/C(N)=N/c2nc3ccccc3s2)c1", "recorded.result": -38.7}
{"test.smiles": "Cn1cc(-c2cc3ncnc(Nc4ccc(CC(=O)Nc5nc(C(C)(C)C)cs5)cc4)c3s2)cn1", "recorded.result": 93.1}
{"test.smiles": "CC1(C)CC[C@]23CC[C@]4(C)[C@H](CC[C@@H]5[C@@]6(C)CC[C@H](N)C(C)(C)[C@@H]6CC[C@]54C)[C@H]2[C@H]1OC3", "recorded.result": 96.1}
{"test.smiles": "O=C(NNc1nc2cc(F)cc(F)c2n2cccc12)c1cccnn1", "recorded.result": 28.2}
{"test.smiles": "CCCCCCN1C=C/C(=C\\C(=O)n2ccc3ccccc32)c2ccccc21", "recorded.result": 89.6}
{"test.smiles": "CCCCCCNC(=O)Oc1ccc(/C(=C(/C)c2ccc(Cl)cc2)c2ccc(OCCN3CCCCCC3)cc2)cc1", "recorded.result": 76.8}

Turning now to a further molecule:
Query :: Using the record for `Cn1ncc2ncc(-c3ccc4ncc(C#N)c(N5CCc6cc(F)c(Cl)cc65)c4c3)cc21` , report its growth.
Result :: 22.3

====

# Tested on: SK-MEL-5 melanoma
# procedure.summary: NCI-60 one-dose screen, 48 h
# test.settings: 10 µM unless noted
Compounds without any hit were thinned out: in the full panel of roughly 83,000, 20% have a hit. Calls of active or inactive are those of the source. How the source made its calls: active means growth percent below 10; inactive means the rest.
Respond using exactly one of the listed classes: active, inactive

{"compound": "CCOC(=O)c1ccc(NC2=C(Cl)C(=O)c3nc(C)ccc3C2=O)cc1", "class.assignment": "inactive"}
{"compound": "COc1ccc(C(C)=C(c2ccc(OCCN(C)C)cc2)c2ccc(OCCN(C)C)cc2)cc1", "class.assignment": "active"}
{"compound": "CC[C@]12C=CCN3CC[C@@]4(c5ccc(OC)cc5N(C)[C@H]4[C@@](O)(C(=O)OC)[C@@H]1OC(=O)CCN1CCc4ccccc4C1)[C@@H]32", "class.assignment": "inactive"}
{"compound": "CCCCSC1=C(Cl)CN(c2ccc(Cl)cc2)C1=O", "class.assignment": "inactive"}

Query :: Lab log entry: `O=C(N/N=C\c1ccc([N+](=O)[O-])cc1)c1ccc2nc(-c3ccc(Br)cc3)[nH]c2c1` — outcome as called in the assay?
Result :: active

Query :: Next: C#CCOc1ccccc1C(OC(=O)c1ccccc1)C(=O)NC(C)(C)C(C)(C)C (centres undefined)
Result :: inactive

Query :: Same again, this time with `O=C1Nc2ccccc2/C1=C/c1ccc(OCC(=O)c2ccccc2)cc1`
Result :: inactive

Query :: Okay, and `COc1cccc2c1[C@H](OC)[C@]13O[C@@]1(C2=O)[C@H](O)[C@H](C)[C@@](O)(C(=O)[C@@H]1O[C@H]1C)[C@@H]3O` ?
Result :: active

Query :: // next record CCOC(=O)C1=C(C)NC(C)=C(C(=O)OC(C)C)C1c1cccc(C#N)c1 (centres undefined)
Result :: inactive

====

# Tested on: CAKI-1 renal
# procedure.summary: NCI-60 one-dose screen, 48 h
# test.settings: 10 µM unless noted
This is part of a sample that, as a whole, favours compounds with a hit. Of some 83,000 tested, about 20% had one in any assay. Activity calls are given as the source filed them. How the source made its calls: active means growth percent below 10; inactive means the rest.
Your response should consist of one outcome taken from yes for active, no for inactive

The examples below pair each entry with its known result.
{"test.smiles": "Cc1cc(=O)oc2cc(OCCCOc3ccc(/C=C/C(=O)Nc4ccc(Br)cc4)cc3)ccc12", "class.assignment": "no"}
{"test.smiles": "COc1ccc(CC(C)=C(c2ccc(OCCN3CCCC3)cc2)c2ccc(OCCN3CCCC3)cc2)cc1", "class.assignment": "yes"}
{"test.smiles": "Nc1ncc(-c2ccc3ncnc(NCc4ccccc4)c3c2)cn1", "class.assignment": "no"}
{"test.smiles": "C/C(=C(\\c1ccc(O)cc1)c1ccc(OCCN2CCCCCC2)cc1)c1ccc(Cl)cc1", "class.assignment": "yes"}
{"test.smiles": "O=C(CCCCCCNC(=O)C(O)(O)C(F)(F)F)Nc1nc2ccccc2s1", "class.assignment": "yes"}

Consider the additional compound presented here.
Query :: Hi, sorry to bother you, what did the test record for `COc1cc(/C=C2/C(=O)Nc3ccc(Cl)cc32)ccc1OCc1ccc(Cl)cc1` ?
Result :: no

====

Recorded growth by entry
# System: HS 578T breast
# procedure.summary: NCI-60 one-dose screen, 48 h (100 = growth as untreated, 0 = no growth, -100 = all killed)
# test.settings: 10 µM unless noted
About 83,000 compounds went through this panel and 20% of them were active in at least one assay; those are over-represented in the sample as a whole. Calls of active or inactive are those of the source. How the source made its calls: active means growth percent below 10; inactive means the rest.

Take a look at these entries with their results.
{"molecule": "COc1cc(-c2nc(-c3ccccc3)[nH]c2-c2ccnc(NCCCNS(=O)(=O)c3cccc(F)c3)n2)ccc1F", "tgt": "HS 578T breast", "growth": "103% (inactive)"}
{"molecule": "Cc1csc(/N=C(N)/N=C(\\N)c2cccs2)n1", "tgt": "HS 578T breast", "growth": "107% (inactive)"}
{"molecule": "NCCNC(=O)c1cccc(COc2ccccc2NC(=O)c2cc(Br)c(Br)[nH]2)c1", "tgt": "HS 578T breast", "growth": "100% (inactive)"}
{"molecule": "COc1ccccc1/C=C/C(=O)c1nnn(-c2ccc(F)cc2)c1C", "tgt": "HS 578T breast", "growth": "78.3% (inactive)"}
{"molecule": "Cc1ccc2c(n1)C(=O)C(Cl)=C(Nc1cccc(C(=O)OC(C)(C)C)c1)C2=O", "tgt": "HS 578T breast", "growth": "102% (inactive)"}
{"molecule": "CC1=C(C)C(=O)C(Nc2cccc(C)c2)=C(Br)C1=O", "tgt": "HS 578T breast", "growth": "96.1% (inactive)"}

Query :: Give the measured growth of `Cn1ncc2ncc(-c3ccc4ncc(C#N)c(N5CCc6cc(F)c(Cl)cc65)c4c3)cc21` .
Result :: -1.2% (active)

Query :: Now the molecule `CC1(C)CC[C@]2(C(=O)NCCCCCCN(CCCN)CCCN)CC[C@]3(C)C(=CC[C@@H]4[C@@]5(C)CC[C@H](O)C(C)(C)[C@@H]5CC[C@]43C)[C@@H]2C1`
Result :: 110% (inactive)

Query :: # repeat for `c1ccc(-c2cn3c(-c4c[nH]c5ccccc45)csc3n2)cc1`
Result :: 68.9% (inactive)

Query :: Next up: `CN1CCC[C@]2(C)[C@H]3CC[C@@H]4[C@@H]5[C@H]6OC[C@@]5(CCC6(C)C)CC[C@@]4(C)[C@]3(C)CC[C@H]2C1(C)C`
Result :: 99% (inactive)

Query :: Repeat with `NC(=O)c1c(NC(=O)c2ccc(C(F)(F)F)cc2)sc2c1CCC(=O)C2`
Result :: 19.4% (inactive)

Query :: Would you mind doing `C#CCN(C)CCCOc1ccc(NC(=O)CCCCCCCCC(=O)NO)cc1Cl` as well?
Result :: 70.3% (inactive)
